assayComment: Pharmacokinetic food-effect study, single 20 mg/kg dose, healthy subjects (Example 17)
details: human, in vivo, po, 20 mg/kg, ln(AUC0-t) Geometric Mean, cannabidiol, 20 mg/kg oral, Fasted; least squares geometric mean
quantityName: AUC(0-t) (ng·h/mL)
Numeric only. Scale: ng·h/mL

Kindly note the recorded AUC(0-t) for C=C(C)[C@@H]1CCC(C)=C[C@H]1c1c(O)cc(CCCCC)cc1O [cannabidiol] , which is 669

---

assayComment: Pharmacokinetic food-effect study, single 20 mg/kg dose, healthy subjects (Example 17)
details: human, in vivo, po, 20 mg/kg, AUC0-48, cannabidiol, single 20 mg/kg oral, fed; mean ± SD
quantityName: AUC(0-t) (ng·h/mL)
Write the value in ng·h/mL as a bare number.

Briefly, AUC(0-t) measured for C=C(C)[C@@H]1CCC(C)=C[C@H]1c1c(O)cc(CCCCC)cc1O : 15.5
